- measurementTarget: BCMA (analyte of Table 4A)
- Sequence (Q02223 whole entry): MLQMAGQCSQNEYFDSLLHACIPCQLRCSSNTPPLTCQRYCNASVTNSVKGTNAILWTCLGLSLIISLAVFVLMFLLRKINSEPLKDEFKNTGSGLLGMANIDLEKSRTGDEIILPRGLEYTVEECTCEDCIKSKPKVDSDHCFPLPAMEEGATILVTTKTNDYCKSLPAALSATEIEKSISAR
- procedureDetails: SPR (Bio-Rad ProteOn XPR36), IgG amine-coupled, BCMA as analyte, kinetic titration; species of BCMA and temperature not stated for Table 4A
The entries below come with measured kon values attached.
valueKind: kon (M⁻¹ s⁻¹)

[[record]]
binder = "A02_Rd4_6nM_C16 (antibody, V domains shown, Tested as IgG; also called P5AC16) VH: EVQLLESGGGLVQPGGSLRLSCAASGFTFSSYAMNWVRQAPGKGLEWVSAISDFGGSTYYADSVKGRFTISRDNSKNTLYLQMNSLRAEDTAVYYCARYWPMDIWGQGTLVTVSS VL: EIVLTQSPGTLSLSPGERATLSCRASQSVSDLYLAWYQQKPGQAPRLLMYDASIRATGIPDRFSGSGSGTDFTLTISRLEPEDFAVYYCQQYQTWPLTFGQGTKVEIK"
recordedresult = "1.1e+06"

[[record]]
binder = "COMBO_Rd4_0.6nM_C29 (antibody, V domains shown, Tested as IgG) VH: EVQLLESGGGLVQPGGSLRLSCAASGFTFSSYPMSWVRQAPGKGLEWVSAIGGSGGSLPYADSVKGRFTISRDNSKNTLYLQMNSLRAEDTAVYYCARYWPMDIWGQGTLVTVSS VL: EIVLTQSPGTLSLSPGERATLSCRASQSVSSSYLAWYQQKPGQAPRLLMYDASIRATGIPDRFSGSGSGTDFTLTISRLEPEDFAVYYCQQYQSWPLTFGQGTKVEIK"
recordedresult = "6.6e+06"

[[record]]
binder = "L3.PY/H3.TAQ (antibody, V domains shown, Tested as IgG) VH: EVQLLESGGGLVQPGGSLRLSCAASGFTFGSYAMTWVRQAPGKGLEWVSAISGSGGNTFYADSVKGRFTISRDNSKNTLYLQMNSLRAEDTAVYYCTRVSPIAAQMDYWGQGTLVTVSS VL: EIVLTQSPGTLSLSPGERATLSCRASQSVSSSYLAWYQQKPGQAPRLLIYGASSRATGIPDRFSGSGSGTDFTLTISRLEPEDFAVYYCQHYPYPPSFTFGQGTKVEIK"
recordedresult = "2.6e+06"

[[record]]
binder = "A02_Rd4_6nM_C01 (antibody, V domains shown) VH: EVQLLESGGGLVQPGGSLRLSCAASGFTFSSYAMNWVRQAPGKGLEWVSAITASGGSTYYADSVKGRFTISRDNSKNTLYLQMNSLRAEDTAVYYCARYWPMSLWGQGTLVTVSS VL: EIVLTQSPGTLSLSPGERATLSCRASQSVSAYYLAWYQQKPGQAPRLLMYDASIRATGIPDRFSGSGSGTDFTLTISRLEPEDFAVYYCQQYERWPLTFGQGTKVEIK"
recordedresult = "1.2e+06"


Data credit: patent US20160297884A1
